B1: Chromodomain-helicase-DNA-binding protein 3, residues 374 to 426; numbered along this chain, Q12873 (parent)
chain: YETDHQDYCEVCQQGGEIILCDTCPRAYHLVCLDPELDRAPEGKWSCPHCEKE

# Variants of: B1
# RUN_DESCRIPTION: abundance fitness (aPCA) (normalised: wild type 0, dead -1); higher = more abundant; growth selection in yeast, the domain comes from the species named
# CONDITION_CONTEXT: Homo sapiens
Measured abundance fitness accompanies every entry in the list below.
# answer = number (no unit)

The cases that follow already have their abundance fitness on record.
H5S	0.302
P35S	-0.068

Alright, here's another variant for you.
Prompt line: Item I19Y has what recorded abundance fitness?
Response line: 0.117
